Where these numbers come from: the supplement of paper PMC10567573

B1: FBXO3 (parent)
chain: AGGFQQRQGLKYCLPLTFCIHTGL

# Variants of: B1
# assay-notes: protein stability index of a GFP-peptide fusion (GPS, HEK-293T) (PSI 1-6); higher = more stable;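 note: lentivirally expressed fusions sorted by FACS into six bins by GFP to DsRed ratio, PSI derived from sequencing read proportions per bin multiplied by bin number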
# conditions-used: c terminus: a fixed tail appended
measurement-name: protein stability index
Answer with the value's number alone.

Example results:
Q5L	2.32
Q5C	3.02
P15R	2.51

API: the following record is the query input.
# input Which measured protein stability index value corresponds to L14I ?
# output 4.28
